Each recorded value in this set is attributed to patent US10130615B2.

Molecular target: μ-opioid receptor (Homo sapiens, UniProt P35372)
Sequence (P35372 whole entry, species assumed): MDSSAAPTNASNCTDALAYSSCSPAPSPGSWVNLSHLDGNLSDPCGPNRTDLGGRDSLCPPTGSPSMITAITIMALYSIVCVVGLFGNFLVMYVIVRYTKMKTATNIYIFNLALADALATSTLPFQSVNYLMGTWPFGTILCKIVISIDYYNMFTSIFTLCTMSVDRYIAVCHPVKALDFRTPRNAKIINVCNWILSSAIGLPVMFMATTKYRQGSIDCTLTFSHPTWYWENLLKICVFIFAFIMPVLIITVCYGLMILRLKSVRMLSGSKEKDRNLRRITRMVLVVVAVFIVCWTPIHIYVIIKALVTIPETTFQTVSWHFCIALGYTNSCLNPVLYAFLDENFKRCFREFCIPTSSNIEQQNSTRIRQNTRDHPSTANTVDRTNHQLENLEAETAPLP
Assay: μ-opioid receptor GTPγS functional assay, U2OS cells
Criterion: EC50 strictly under 200 nM. Met: true (1). Not met: false (0).

C[C@H]1[C@H]2Cc3ccc(O)cc3[C@]1(CCNCCc1ccc(S(N)(=O)=O)cc1)CCN2C: true (1)

Just wondering, is EC50 of `COc1ccc2c(c1)[C@]1(CCNCCc3ccc(S(N)(=O)=O)cc3)CCN(C)[C@H](C2)[C@@H]1C` below 200 nM?
false (0)

Just wondering, is EC50 of `CCOC(=O)c1ccc(NC(=O)NCC[C@]23CCN(CC4CC4)[C@H](Cc4ccc(OC)cc42)[C@@H]3C)cc1` below 200 nM?
true (1)

Just wondering, is EC50 of `COc1ccc2c(c1)[C@]1(CCN3CCC(N(C4CC4)S(=O)(=O)c4ccc(Cl)cc4)CC3)CCN(C)[C@H](C2)[C@@H]1C` below 200 nM?
false (0)

Just wondering, is EC50 of `C[C@H]1[C@H]2Cc3ccc(O)cc3[C@]1(CCNS(=O)(=O)C1CC1)CCN2CC1CC1` below 200 nM?
true (1)

Just wondering, is EC50 of `C[C@H]1[C@H]2Cc3ccc(O)cc3[C@]1(CCCC(N)=O)CCN2CC1CCC1` below 200 nM?
true (1)

Just wondering, is EC50 of `C[C@H]1[C@H]2Cc3ccc(O)cc3[C@]1(CC(=O)NCCc1ccc(S(N)(=O)=O)cc1)CCN2C` below 200 nM?
true (1)

====

Biological target: μ-opioid receptor (Homo sapiens)
Assay: μ-opioid receptor radioligand binding assay ([3H]-diprenorphine)
Parameters: purchased Perkin Elmer, Shelton, Conn; host or cells: HEK-293 or CHO
Conditions: HEK-293 or CHO cells; read-out: Ki (nM) Opioid Receptor μ
Measured Ki values are reported for all entries that follow.
Give the number; nM is assumed, so skip it.

CC(C)[C@H](NCC[C@@]12CCN(CC3CC3)[C@@H](Cc3ccc(O)cc31)[C@H]2C)C(=O)O: 4610
COc1ccc2c(c1)[C@]1(CCN[C@@H](C)C(=O)O)CCN(CC3CC3)[C@H](C2)[C@@H]1C: 871
C[C@H]1[C@H]2Cc3ccc(O)cc3[C@]1(CCCCN[C@@H](Cc1ccccc1)C(N)=O)CCN2CC1CC1: 0.2
COC(=O)[C@H](Cc1ccccc1)NCCCC[C@]12CCN(CC3CC3)[C@H](Cc3ccc(O)cc31)[C@@H]2C: 0.071
COC(=O)[C@H](CCCCN)NCCCC[C@]12CCN(CC3CC3)[C@H](Cc3ccc(O)cc31)[C@@H]2C: 0.73
COc1ccc2c(c1)[C@]1(CCNC3(C(=O)O)CC3)CCN(CC3CC3)[C@H](C2)[C@@H]1C: 1470
C[C@H]1[C@H]2Cc3ccc(O)cc3[C@]1(CCNC(=O)c1ccc(C(=O)O)cc1)CCN2CC1CC1: 5.62

# ---- query compound ----
The compound `COc1ccc2c(c1)[C@]1(CCOCc3ccccc3)CCN(CC3CC3)[C@H](C2)[C@@H]1C` , when measured on μ-opioid receptor (Homo sapiens), yielded Ki of 543

====

Molecular target: κ-opioid receptor (Homo sapiens, UniProt P41145)
Sequence (P41145 whole entry): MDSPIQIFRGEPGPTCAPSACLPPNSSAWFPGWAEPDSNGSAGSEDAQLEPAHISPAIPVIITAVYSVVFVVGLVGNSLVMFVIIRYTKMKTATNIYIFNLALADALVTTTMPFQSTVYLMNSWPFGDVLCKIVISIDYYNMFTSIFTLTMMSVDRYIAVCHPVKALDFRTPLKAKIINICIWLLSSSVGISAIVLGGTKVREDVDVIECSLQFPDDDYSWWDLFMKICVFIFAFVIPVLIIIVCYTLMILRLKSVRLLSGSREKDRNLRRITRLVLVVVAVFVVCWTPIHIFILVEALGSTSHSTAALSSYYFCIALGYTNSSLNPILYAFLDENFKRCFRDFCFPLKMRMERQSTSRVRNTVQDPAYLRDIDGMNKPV
Assay: κ-opioid receptor [35S]GTPγS functional assay, HEK-293 or CHO cells
Assay type: biochemical
Parameters: expressed in transfected cells; host or cells: HEK-293
Settings: HEK-293 or CHO cells; read-out: GTPγS κ EC50
Measured log10 of EC50 values are reported for all entries that follow.
Heads up: the numbers are on a log10 scale; they represent EC50 in nM.

These recorded examples may help you get a feel for the data.
COC(=O)[C@H](CCCCN)NCCCC[C@]12CCN(CC3CC3)[C@H](Cc3ccc(O)cc31)[C@@H]2C: -0.72
CCOC(=O)c1ccc(NC(=O)NCC[C@]23CCN(CC4CC4)[C@H](Cc4ccc(OC)cc42)[C@@H]3C)cc1: 1.52
COc1ccc2c(c1)[C@]1(CCOCc3ccccc3)CCN(CC3CC3)[C@H](C2)[C@@H]1C: 1.21
C[C@H]1[C@H]2Cc3ccc(O)cc3[C@]1(CCN1CCS(=O)(=O)CC1)CCN2C: 2.71
C[C@H]1[C@H]2Cc3ccc(O)cc3[C@]1(CCCC(=O)N(C)C)CCN2CC1CCC1: 0.66

The compound `COc1ccc2c(c1)[C@]1(CCNC3(C(=O)O)CC3)CCN(CC3CC3)[C@H](C2)[C@@H]1C` , when measured on κ-opioid receptor (Homo sapiens, UniProt P41145), yielded log10 of EC50 of 3.90

The compound `COc1ccc2c(c1)[C@]1(CCNC(=O)CN)CCN(CC3CC3)[C@H](C2)[C@@H]1C` , when measured on κ-opioid receptor (Homo sapiens, UniProt P41145), yielded log10 of EC50 of 1.79

The compound `COc1ccc2c(c1)[C@@]1(CCOCc3ccccc3)CCN(CC3CC3)[C@@H](C2)[C@H]1C` , when measured on κ-opioid receptor (Homo sapiens, UniProt P41145), yielded log10 of EC50 of 2.93

The compound `COC(=O)[C@H](Cc1ccccc1)NCCCC[C@]12CCN(CC3CC3)[C@H](Cc3ccc(O)cc31)[C@@H]2C` , when measured on κ-opioid receptor (Homo sapiens, UniProt P41145), yielded log10 of EC50 of -0.22

====

Target: μ-opioid receptor (Homo sapiens, UniProt P35372)
Assay: biochemical
Design: purchased Perkin Elmer, Shelton, Conn; host or cells: HEK-293 or CHO
Settings: HEK-293 or CHO cells; relative to DAMGO; read-out: GTPγS μ Emax
Measured Emax values are reported for all entries that follow.
Give the number; % is assumed, so skip it.

These recorded examples may help you get a feel for the data.
COc1ccc2c(c1)[C@]1(CCN[C@@H](C)C(=O)O)CCN(CC3CC3)[C@H](C2)[C@@H]1C [Compound 40]: 77.7
C[C@H]1[C@H]2Cc3ccc(O)cc3[C@]1(CCN1CCN(C(c3ccc(F)cc3)c3ccc(F)cc3)CC1)CCN2C [Compound 8]: 47
C[C@H]1[C@H]2Cc3ccc(O)cc3[C@]1(CCNC(=O)c1ccc(C(N)=O)cc1)CCN2C [Compound 86]: 48.2
COc1ccc2c(c1)[C@]1(CCNCC(=O)O)CCN(CC3CC3)[C@H](C2)[C@@H]1C [Compound 36]: 39
COc1ccc2c(c1)[C@]1(CCNC(=O)[C@@H]3CCCN3C(C)=O)CCN(CC3CC3)[C@H](C2)[C@@H]1C [Compound 5]: 16.3

# molecule C[C@H]1[C@H]2Cc3ccc(O)cc3[C@]1(CCNC(=O)c1ccc(F)cc1)CCN2C [Compound 83] ; its Emax = 77.2

# molecule C[C@H]1[C@H]2Cc3ccc(O)cc3[C@]1(CCNC(=O)Nc1cccc(Oc3ccccc3)c1)CCN2C [Compound 74] ; its Emax = 52.1

# molecule C[C@H]1[C@H]2Cc3ccc(O)cc3[C@]1(CCNC(=O)Cc1ccc(C(=O)O)cc1)CCN2CC1CC1 [Compound 31] ; its Emax = 0

# molecule COc1ccc2c(c1)[C@@]1(CCNCC(=O)O)CCN(CC3CC3)[C@@H](C2)[C@H]1C [Compound 39] ; its Emax = 19.7

# molecule C[C@H]1[C@H]2Cc3ccc(O)cc3[C@]1(CCN1CCC(N(C3CC3)S(=O)(=O)c3ccc(Cl)cc3)CC1)CCN2C [Compound 58] ; its Emax = 53.3

====

Molecular target: ORL-1 receptor (Homo sapiens, UniProt P41146)
Construct: host or cells: HEK-293
Sequence (P41146 whole entry): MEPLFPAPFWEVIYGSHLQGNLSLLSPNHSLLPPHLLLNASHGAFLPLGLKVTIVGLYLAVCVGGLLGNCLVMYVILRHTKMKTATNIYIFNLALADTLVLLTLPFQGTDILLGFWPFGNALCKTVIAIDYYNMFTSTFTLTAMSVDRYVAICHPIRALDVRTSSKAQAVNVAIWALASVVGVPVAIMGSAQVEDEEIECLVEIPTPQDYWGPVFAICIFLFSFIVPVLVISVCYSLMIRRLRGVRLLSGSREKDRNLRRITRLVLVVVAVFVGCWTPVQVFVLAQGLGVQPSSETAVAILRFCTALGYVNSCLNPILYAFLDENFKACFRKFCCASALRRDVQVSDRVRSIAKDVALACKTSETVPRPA
Experiment: ORL-1 receptor radioligand binding assay ([3H]-nociceptin)
Details: HEK-293 or CHO cells; read-out: Ki (nM) Opioid Receptor ORL-1
Procedure: ORL-1 Receptor Binding Assay Procedure: Membranes from recombinant HEK-293 cells expressing the human opioid receptor-like receptor (ORL-1) (Perkin Elmer, Shelton, Conn.) were prepared by lysing cells in ice-cold hypotonic buffer (2.5 mM MgCl2, 50 mM HEPES, pH 7.4) (10 ml/10 cm dish) followed by homogenization with a tissue grinder/Teflon pestle. […] Protein concentrations were determined using the BioRad protein assay reagent with bovine serum albumen as standard. […]
quantity-name: Ki (nM)
Give the number; nM is assumed, so skip it.

C[C@H]1[C@H]2Cc3ccc(O)cc3C1(CCN[C@H]1C[C@H]3CCC[C@@H](C1)N3CC[C@@H]1CC[C@H]3C[C@@H]1C3(C)C)CCN2C [Compound 64]: 563

# ---- query molecule ----
# molecule C[C@H]1[C@H]2Cc3ccc(O)cc3C1(CCN[C@H]1C[C@H]3CCC[C@@H](C1)N3[C@@H]1C[C@@H]3CCCC[C@@H](C3)C1)CCN2C [Compound 63] ; its Ki = 125

====

Target: κ-opioid receptor (Homo sapiens, UniProt P41145)
Assay: κ-opioid receptor GTPγS functional assay, U2OS cells
Type: biochemical
Parameters: expressed in transfected cells; host or cells: U-2 OS
Details: U2OS cells
quantity-name: Emax (%)
Give the number; % is assumed, so skip it.

These recorded examples may help you get a feel for the data.
COc1ccc2c(c1)[C@]1(CCNC(=O)[C@H](C)NC(C)=O)CCN(CC3CC3)[C@H](C2)[C@@H]1C: 97
COC(=O)[C@H](CCCCN)NCCCC[C@]12CCN(CC3CC3)[C@H](Cc3ccc(O)cc31)[C@@H]2C: 102
C[C@H]1[C@H]2Cc3ccc(O)cc3[C@]1(CCNC(=O)Nc1ccc(C(=O)O)cc1)CCN2CC1CC1: 106
C[C@H]1[C@H]2Cc3ccc(O)cc3[C@]1(CCCC(=O)N(C)C)CCN2CC1CCC1: 104
COc1ccc2c(c1)[C@]1(CCNC(=O)CN)CCN(CC3CC3)[C@H](C2)[C@@H]1C: 108
C[C@H]1[C@H]2Cc3ccc(O)cc3[C@]1(CCCC(N)=O)CCN2CC1CCC1: 108

The molecule `COc1ccc2c(c1)[C@]1(CCO)CCN(CC3CC3)[C@H](C2)[C@@H]1C` , when measured on κ-opioid receptor (Homo sapiens, UniProt P41145), yielded Emax of 102

The molecule `COc1ccc2c(c1)[C@@]1(CCOCc3ccccc3)CCN(C)[C@@H](C2)[C@H]1C` , when measured on κ-opioid receptor (Homo sapiens, UniProt P41145), yielded Emax of 99.3
